- tested-target: JAK3 (Homo sapiens, UniProt P52333)
- Construct: All four purified enzymes contain only the catalytic domain; His (N)
- Sequence (P52333 822-1111 limits assumed): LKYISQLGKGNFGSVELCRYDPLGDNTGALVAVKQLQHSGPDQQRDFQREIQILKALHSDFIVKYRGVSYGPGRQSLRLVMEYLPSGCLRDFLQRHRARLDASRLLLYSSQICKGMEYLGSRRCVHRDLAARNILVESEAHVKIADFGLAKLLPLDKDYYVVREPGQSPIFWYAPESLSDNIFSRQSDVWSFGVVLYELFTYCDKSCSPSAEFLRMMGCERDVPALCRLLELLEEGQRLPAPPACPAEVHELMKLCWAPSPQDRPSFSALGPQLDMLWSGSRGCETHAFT
- assay-text: JAK3 kinase assay (HTRF, inhibition of phosphorylation of a synthetic peptide)
- condition-info: catalytic domain, His-tag; 2 μM ATP (Km); read-out: JAK3 kinase inhibitory activity (EC50)
# EC50 listing for each entry below

# compound, EC50
measured = [
    ("N#CCCN(CCC#N)C(=O)N1CCN(c2ncnc3[nH]ccc23)CC2(CC2)C1 [Example 225]", "0.1 to 1 µM"),
    ("N#Cc1ccccc1C(=O)N1CCCN(c2ncnc3[nH]ccc23)CC12CC2 [Example 162]", "> 1 µM"),
    ("N#CC1(C(=O)N2CCCN(c3ncnc4[nH]ccc34)CC23CC3)CC1 [Example 60]", "0.1 to 1 µM"),
    ("Cc1cc(C(=O)N2CCN(c3ncnc4[nH]ccc34)CC3(CC3)C2)[nH]n1 [Example 148]", "> 1 µM"),
    ("NS(=O)(=O)c1ccc(NC(=O)C(=O)N2CCN(c3ncnc4[nH]ccc34)CC3(CC3)C2)cc1 [Example 64]", "< 0.1 µM"),
    ("Cc1cccc(CC(=O)N2CCN(c3ncnc4[nH]ccc34)CC3(CC3)C2)c1 [Example 262]", "> 1 µM"),
    ("N#CCCC(=O)N1CCN(c2ncnc3[nH]ccc23)CCC12CC2 [Example 49]", "0.1 to 1 µM"),
    ("Cc1[nH]ncc1C(=O)N1CCN(c2ncnc3[nH]ccc23)CC2(CC2)C1 [Example 206]", "0.1 to 1 µM"),
    ("N#C[C@@H]1CCCN1C(=O)N1CCN(c2ncnc3[nH]ccc23)CC2(CC2)C1 [Example 222]", "0.1 to 1 µM"),
    ("O=C(CCC(F)(F)F)N1CCN(c2ncnc3[nH]ccc23)CCC12CC2 [Example 45]", "0.1 to 1 µM"),
    ("CN1CCN(CC(=O)N2CCN(c3ncnc4[nH]ccc34)CC3(CC3)C2)C1=O [Example 82]", "0.1 to 1 µM"),
    ("Cc1nnsc1C(=O)N1CCCN(c2ncnc3[nH]ccc23)CC12CC2 [Example 147]", "> 1 µM"),
    ("Cc1cnccc1C(=O)N1CCN(c2ncnc3[nH]ccc23)CC2(CC2)C1 [Example 137]", "> 1 µM"),
    ("O=C(c1c[nH]nn1)N1CCCN(c2ncnc3[nH]ccc23)CC12CC2 [Example 205]", "0.1 to 1 µM"),
    ("CN(CCC#N)C(=O)N1CCN(c2ncnc3[nH]ccc23)CC2(CC2)C1 [Example 220]", "0.1 to 1 µM"),
    ("Cc1cc(CC(=O)N2CCN(c3ncnc4[nH]ccc34)CC3(CC3)C2)n[nH]1 [Example 248]", "> 1 µM"),
    ("O=C(c1n[nH]c(Cl)n1)N1CCN(c2ncnc3[nH]ccc23)CC2(CC2)C1 [Example 231]", "0.1 to 1 µM"),
    ("NS(=O)(=O)c1ccc(C(=O)N2CCN(c3ncnc4[nH]ccc34)CC3(CC3)C2)o1 [Example 37]", "0.1 to 1 µM"),
    ("Cc1ccc(S(=O)(=O)N2CC3(CC3)CN(c3ncnc4[nH]ccc34)CC2C)cc1 (centres unmarked) [Example 98]", "> 1 µM"),
    ("Cc1cc(S(N)(=O)=O)ccc1C(=O)N1CCN(c2ncnc3[nH]ccc23)CC2(CC2)C1 [Example 71]", "0.1 to 1 µM"),
    ("O=C(Cc1cccs1)N1CCN(c2ncnc3[nH]ccc23)CC2(CC2)C1 [Example 30]", "0.1 to 1 µM"),
    ("O=C(c1ccnnc1)N1CCN(c2ncnc3[nH]ccc23)CC2(CC2)C1 [Example 139]", "> 1 µM"),
    ("Cc1cnc(C(=O)N2CCN(c3ncnc4[nH]ccc34)CC3(CC3)C2)s1 [Example 241]", "0.1 to 1 µM"),
    ("CCCC1=NOC(C(=O)N2CCCN(c3ncnc4[nH]ccc34)CC23CC3)C1 (centres unmarked) [Example 124]", "0.1 to 1 µM"),
    ("Cn1c(C(=O)N2CCN(c3ncnc4[nH]ccc34)CC3(CC3)C2)ccc1S(N)(=O)=O [Example 35]", "0.1 to 1 µM"),
    ("CCCCN1CCCN(c2ncnc3[nH]ccc23)CC12CC2 [Example 281]", "0.1 to 1 µM"),
    ("O=C(Cc1cncs1)N1CCN(c2ncnc3[nH]ccc23)CC2(CC2)C1 [Example 252]", "0.1 to 1 µM"),
    ("CC(=O)Nc1ccc(CC(=O)N2CCN(c3ncnc4[nH]ccc34)CC3(CC3)C2)cc1 [Example 276]", "> 1 µM"),
    ("CCCCS(=O)(=O)N1CCN(c2ncnc3[nH]ccc23)CC2(CC2)C1 [Example 97]", "> 1 µM"),
    ("O=C(Cc1ccc(I)cc1)N1CCN(c2ncnc3[nH]ccc23)CC2(CC2)C1 [Example 66]", "0.1 to 1 µM"),
    ("Cc1cc(C(=O)N2CCCN(c3ncnc4[nH]ccc34)CC23CC3)n(C)n1 [Example 193]", "> 1 µM"),
    ("CC(C)N(C)C(=O)N1CCN(c2ncnc3[nH]ccc23)CC2(CC2)C1 [Example 223]", "0.1 to 1 µM"),
    ("CN(C1CCCCC1)S(=O)(=O)N1CCN(c2ncnc3[nH]ccc23)CC2(CC2)C1 [Example 105]", "> 1 µM"),
    ("O=C(c1cnco1)N1CCCN(c2ncnc3[nH]ccc23)CC12CC2 [Example 156]", "0.1 to 1 µM"),
    ("O=C(c1ccc(Cl)cc1)N1CCN(c2ncnc3[nH]ccc23)CC2(CC2)C1 [Example 176]", "0.1 to 1 µM"),
]
